Where do the numbers come from? From ChEMBL document CHEMBL4312009.

Listing of recorded EC50 by entry.
# measurement notes: Activation of wnt pathway in mouse C2C12 cells assessed as increase in alkaline phosphatase activity
# Format: cell-based

Answered examples (2):
CCCCCc1c2c(c(C)c3c1Oc1cc(OC)ccc1O3)C(=O)OC2: > 10 µM
CCCCCc1c2c(c(C)c3c1C(=O)OC3)Oc1ccc(OC)cc1O2: > 10 µM

Record request: EC50 value, item "CCCCCCc1c2c(c(C)c3c1C(=O)SC3)Oc1ccccc1O2" > 10 µM
